Would you mind telling me the reported inhibition of each entry?
# Tested on: Platelet-derived growth factor receptor alpha (Homo sapiens), P16234 [D842V]
# Sequence (P16234 whole entry D842V): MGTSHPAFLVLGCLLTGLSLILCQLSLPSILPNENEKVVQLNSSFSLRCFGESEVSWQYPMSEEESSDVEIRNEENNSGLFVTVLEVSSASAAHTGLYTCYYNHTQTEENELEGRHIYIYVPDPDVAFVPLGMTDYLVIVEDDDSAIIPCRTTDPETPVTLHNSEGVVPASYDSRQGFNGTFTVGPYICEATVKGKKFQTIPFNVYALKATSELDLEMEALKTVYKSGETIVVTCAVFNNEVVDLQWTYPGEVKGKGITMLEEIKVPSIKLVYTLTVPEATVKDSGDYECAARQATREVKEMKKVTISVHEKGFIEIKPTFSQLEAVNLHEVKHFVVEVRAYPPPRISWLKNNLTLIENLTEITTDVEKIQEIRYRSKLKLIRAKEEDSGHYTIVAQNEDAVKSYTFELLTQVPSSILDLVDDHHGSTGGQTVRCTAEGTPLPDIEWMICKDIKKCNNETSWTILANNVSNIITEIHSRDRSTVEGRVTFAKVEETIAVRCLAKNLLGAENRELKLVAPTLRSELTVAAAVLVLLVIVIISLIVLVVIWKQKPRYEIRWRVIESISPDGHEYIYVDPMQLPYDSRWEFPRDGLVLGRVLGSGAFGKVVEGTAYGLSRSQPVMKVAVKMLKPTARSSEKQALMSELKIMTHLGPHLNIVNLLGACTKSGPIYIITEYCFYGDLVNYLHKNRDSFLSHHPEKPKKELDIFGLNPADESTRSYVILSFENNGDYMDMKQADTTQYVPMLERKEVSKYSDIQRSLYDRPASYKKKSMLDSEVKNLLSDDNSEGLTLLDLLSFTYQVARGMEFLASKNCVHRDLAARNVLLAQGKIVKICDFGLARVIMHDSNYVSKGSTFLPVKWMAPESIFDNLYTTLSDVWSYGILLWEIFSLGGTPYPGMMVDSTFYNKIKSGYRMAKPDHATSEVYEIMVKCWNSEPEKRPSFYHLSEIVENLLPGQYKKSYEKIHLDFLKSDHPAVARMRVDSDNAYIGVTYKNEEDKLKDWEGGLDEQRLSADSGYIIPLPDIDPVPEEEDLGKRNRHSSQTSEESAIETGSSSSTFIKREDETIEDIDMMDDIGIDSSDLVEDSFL
# condition notes: at 1 µM

Input CNC(=O)c1cncc(/C=C/c2ccccc2C)c1 . Output inhibition: 5.79%

Sample COc1ccc(-c2nn3ncccc3c2-c2ccnc(Nc3ccc(F)c(F)c3)n2)cc1 ; inhibition observed: 8.96%

molecule O=C1Nc2ccccc2/C1=C1\CCc2cc(O)ccc21 , inhibition observed: 34.7%

In plain terms, Cc1nnc(-c2cccc(-c3ccc(C(=O)NCC4CC4)cc3)c2)o1 has a documented inhibition of 5.47%

Note to self: inhibition recorded for CC(C)c1ccc(-c2cc(-c3c[nH]nc3-c3ccccn3)ccn2)cc1 was 34.2%

In plain terms, Cc1c2ccc(N(C)c3ccnc(Nc4cccc(S(N)(=O)=O)c4)n3)cc2nn1C has a documented inhibition of 57.9%

GET /value?item= COc1c(C(N)=O)cc(-c2ccc(Cl)cc2)cc1-c1ccc(S(N)(=O)=O)cc1 &field=inhibition returns 2.99%

// sample c1ccc(-c2n[nH]cc2-c2ccnc(-c3ccc(OCCn4ccnc4)cc3)c2)nc1 , its inhibition was 76.1%

The reported value for CS(=O)(=O)CCNCc1ccc(-c2ccc3ncnc(Nc4ccc(OCc5ccccc5)cc4)c3c2)o1 in terms of inhibition is 3.61%

Form: molecule = CC1=C(C(=O)Nc2ccc3[nH]nc(C)c3c2)C(c2ccc(C(F)(F)F)cc2)CC(=O)N1 (stereo not given) ; inhibition = 6.76%

Reference for the values: ChEMBL document CHEMBL1961873
